Assay Name: Selectivity index, ratio of cytotoxicity against human BT549 cells to IC50 for Cryptococcus neoformans ATCC 90113
Format: toxicity, cell-based, BT-549
Run Conditions: read-out: Selectivity Index
Please go through the items and note down their selectivity ratio.

// query Given the entry `CC(C)(C)c1ccc(-c2nc(C[C@H](N)C(=O)N[C@@H](CCCNC(=N)N)C(=O)NCc3ccccc3)c[nH]2)cc1` , report its measured selectivity ratio.
// result > 62.5

// query Given the entry `COC(=O)[C@H](CCCNC(=N)N)NC(=O)[C@@H](N)Cc1c[nH]c(-c2ccc(-c3ccccc3)cc2)n1` , report its measured selectivity ratio.
// result > 1.8

// query Given the entry `COC(=O)[C@H](Cc1c[nH]c(-c2ccc(-c3ccccc3)cc2)n1)NC(=O)[C@@H](N)Cc1c[nH]c2ccccc12` , report its measured selectivity ratio.
// result > 2.6

// query Given the entry `COC(=O)[C@H](CCCNC(=N)N)NC(=O)[C@@H](N)Cc1c[nH]c(-c2cccc3ccccc23)n1` , report its measured selectivity ratio.
// result > 7.3

// query Given the entry `N=C(N)NCCC[C@H](NC(=O)[C@@H](N)Cc1c[nH]c(-c2ccccc2)n1)C(=O)NCc1ccccc1` , report its measured selectivity ratio.
// result > 8.2

// query Given the entry `CC(C)(C)OC(=O)N[C@@H](Cc1c[nH]c(-c2ccc(C(C)(C)C)cc2)n1)C(=O)N[C@@H](CCCNC(=N)N)C(=O)NCc1ccccc1` , report its measured selectivity ratio.
// result > 4.1

// query Given the entry `CC(C)(C)OC(=O)N[C@@H](Cc1c[nH]c(-c2ccc(-c3ccccc3)cc2)n1)C(=O)N[C@@H](CCCNC(=N)N)C(=O)NCc1ccccc1` , report its measured selectivity ratio.
// result > 9.2

====

Tested on: Nakaseomyces glabratus
Assay Name: Antifungal activity against Candida glabrata assessed as growth inhibition
Assay type: functional, organism-based
Activity calls are given as the source filed them. The rule behind the calls is not given here.

Chemical Structure	Assayed System	growth inhibition (GI)
COC(=O)[C@H](CCCNC(=N)N)NC(=O)[C@H](Cc1c[nH]c(-c2ccccc2)n1)NC(=O)OC(C)(C)C	Nakaseomyces glabratus	inactive
COC(=O)[C@H](Cc1c[nH]c(-c2ccccc2)n1)NC(=O)[C@@H](N)Cc1c[nH]c2ccccc12	Nakaseomyces glabratus	inactive
COC(=O)[C@H](Cc1c[nH]c(-c2ccc(OC)cc2)n1)NC(=O)[C@@H](N)Cc1c[nH]c2ccccc12	Nakaseomyces glabratus	inactive
CC(C)(C)OC(=O)N[C@@H](Cc1c[nH]c(-c2ccc(-c3ccccc3)cc2)n1)C(=O)N[C@@H](CCCNC(=N)N)C(=O)NCc1ccccc1	Nakaseomyces glabratus	inactive

====

Assay Name: Selectivity index, ratio of cytotoxicity against human SK-MEL cells to IC50 for Cryptococcus neoformans ATCC 90113
Format: toxicity, cell-based
Run Conditions: read-out: Selectivity Index
Please go through the items and note down their selectivity ratio.

// query Given the entry `CC(C)(C)c1ccc(-c2nc(C[C@H](NC(=O)[C@@H](N)Cc3c[nH]c4ccccc34)C(=O)NCc3ccccc3)c[nH]2)cc1` , report its measured selectivity ratio.
// result > 2.21

// query Given the entry `COC(=O)[C@H](CCCNC(=N)N)NC(=O)[C@@H](N)Cc1c[nH]c(-c2ccc(-c3ccccc3)cc2)n1` , report its measured selectivity ratio.
// result > 1.8

// query Given the entry `COC(=O)[C@H](CCCNC(=N)N)NC(=O)[C@@H](N)Cc1c[nH]c(-c2cccc3ccccc23)n1` , report its measured selectivity ratio.
// result > 7.3

// query Given the entry `N[C@@H](Cc1c[nH]c2ccccc12)C(=O)N[C@@H](Cc1c[nH]c(-c2ccccc2)n1)C(=O)NCc1ccccc1` , report its measured selectivity ratio.
// result > 4.9

// query Given the entry `CC(C)(C)OC(=O)N[C@@H](Cc1c[nH]c(-c2ccc(-c3ccccc3)cc2)n1)C(=O)N[C@@H](CCCNC(=N)N)C(=O)NCc1ccccc1` , report its measured selectivity ratio.
// result > 9.2

// query Given the entry `N=C(N)NCCC[C@H](NC(=O)[C@@H](N)Cc1c[nH]c(-c2ccccc2)n1)C(=O)NCc1ccccc1` , report its measured selectivity ratio.
// result > 8.2
